Molecular target: Replicase polyprotein 1ab (Severe acute respiratory syndrome coronavirus 2) (UniProt P0DTD1)
Experiment: Inhibition of SARS-CoV-2 recombinant GST-tagged nsp15 endonuclease activity using 5'-6-FAM-AArUAA-lowa Black FQ-3' as substrate assessed as cleavage of substrate at 100 uM measured every 2 min for 1 hrs by FRET-based Nsp15 EndoU assay relative to control
Would you please tag the item fulfilled when its inhibition is 30% or above, and not fulfilled when it is below?

COMPOUND: N#CC(C#N)=C1C(=O)Nc2ccc(Br)cc21
LABEL_VALUE: fulfilled
--
COMPOUND: O=C1Nc2ccc(I)cc2C1=O
LABEL_VALUE: not fulfilled
--
COMPOUND: N#CC(C#N)=C1C(=O)Nc2ccc(I)cc21
LABEL_VALUE: fulfilled
--
COMPOUND: O=C1Nc2ccc(F)cc2C1=O
LABEL_VALUE: not fulfilled
--
COMPOUND: O=C1Nc2c(Br)cc(Br)cc2C1=O
LABEL_VALUE: fulfilled
--
COMPOUND: O=C1Nc2ccc(Br)cc2C1=O
LABEL_VALUE: fulfilled
--
COMPOUND: N#CC(C#N)=C1C(=O)Nc2c(Br)cc(Br)cc21
LABEL_VALUE: fulfilled
--
COMPOUND: O=C1Nc2ccc([N+](=O)[O-])cc2C1=O [5-NITROISATIN]
LABEL_VALUE: fulfilled
--
COMPOUND: N#CC(C#N)=C1C(=O)Nc2ccc([N+](=O)[O-])cc21
LABEL_VALUE: fulfilled

----------
Assay: Cytotoxicity against human A549 cells by MTS cell viability analysis
Type: toxicity, cell-based

COMPOUND_STRING: N#CC(C#N)=C1C(=O)Nc2ccc([N+](=O)[O-])cc21
MODIFIER_SIGN: =
CC50 (µM): 189
--
COMPOUND_STRING: N#C[C@@]1(c2ccc3c(N)ncnn23)O[C@H](CO)[C@@H](O)[C@H]1O
MODIFIER_SIGN: >
CC50 (µM): 40
--
COMPOUND_STRING: N#CC(C#N)=C1C(=O)Nc2c(Br)cc(Br)cc21
MODIFIER_SIGN: =
CC50 (µM): 134

----------
Biological target: Replicase polyprotein 1ab (Severe acute respiratory syndrome coronavirus 2, UniProt P0DTD1)
Assay: Inhibition of SARS-CoV-2 recombinant GST-tagged nsp15 endonuclease activity using 5'-6-FAM-AArUAA-lowa Black FQ-3' as substrate assessed as cleavage of substrate measured every 2 min for 1 hrs by FRET-based Nsp15 EndoU assay

COMPOUND_STRING: N#CC(C#N)=C1C(=O)Nc2ccc(Br)cc21
IC50: 82.9 µM
//
COMPOUND_STRING: N#CC(C#N)=C1C(=O)Nc2ccc(I)cc21
IC50: 151 µM
//
COMPOUND_STRING: N#CC(C#N)=C1C(=O)Nc2c(Br)cc(Br)cc21
IC50: 53.5 µM
//
COMPOUND_STRING: N#CC(C#N)=C1C(=O)Nc2ccc(F)cc21
IC50: 236 µM
//
COMPOUND_STRING: N#CC(C#N)=C1C(=O)Nc2ccc([N+](=O)[O-])cc21
IC50: 43.5 µM
